The measurements presented in this section are drawn from patent US12331048B2.

METHOD NOTES: Brain levels (kp and kpu,u) after oral administration
Format: in vivo, CDI mice
PROTOCOL CONDITIONS: CDI, mouse, brain / plasma, po, 20 mg/kg, mice, 20 mpk PO, whole brain AUC over 24 h divided by plasma AUC; read-out: kp (code)
Each record here notes measured Kp at 24 h.

Previously resolved entries follow.
[[record]]
molecule = "CC1(C)C[C@@H](Nc2nnc(-c3ccc(C(F)F)cc3O)c3ccncc23)CCO1 (single isomer, unassigned)"
meas_value = "> 0.3"

[[record]]
molecule = "CC1(C)C[C@H](Nc2nnc(-c3ccc(OC(F)F)cc3O)c3ccncc23)CO1 (single isomer, unassigned)"
meas_value = "> 0.3"


We now examine a further molecule.
Request: What value of Kp at 24 h has been reported for the following molecule? CC1(C)CC[C@H](Nc2nnc(-c3ccc(C(F)F)cc3O)c3ccncc23)CO1 (single isomer, unassigned)
Response: > 0.3

* * *

METHOD NOTES: Solubility in phosphate buffered solution (PBS, pH 7.4)
Format: physicochemical
PROTOCOL CONDITIONS: relative to Comparative Example 3 (6.7 uM)
MEASUREMENT NAME: increase in solubility (PBS, pH 7.4) compared to Comparative Example 3

Previously resolved entries follow.
[[record]]
compound = "Cc1cc(C)c(-c2nnc(N[C@H]3COC(C)(C)C3)c3cnccc23)c(O)c1 (single isomer, unassigned)"
meas_value = "43 fold"

[[record]]
compound = "Cc1cc(O)c(-c2nnc(N[C@H]3COC(C)(C)C3)c3cnccc23)c(Cl)c1 (single isomer, unassigned)"
meas_value = "42 fold"

[[record]]
compound = "Cc1cc(O)c(-c2nnc(N[C@H]3COC(C)(C)C3)c3cnccc23)c(F)c1 (single isomer, unassigned)"
meas_value = "37 fold"

[[record]]
compound = "CC1(C)C[C@H](Nc2nnc(-c3ccc(OC(F)F)cc3O)c3ccncc23)CO1 (single isomer, unassigned)"
meas_value = "7 fold"

[[record]]
compound = "CC1(C)C[C@@H](Nc2nnc(-c3ccc(OC(F)F)cc3O)c3ccncc23)CO1 (single isomer, unassigned)"
meas_value = "7 fold"


We now examine a further compound.
Request: What value of increase in solubility (PBS, pH 7.4) compared to Comparative Example 3 has been reported for the following compound? Cc1ccc(-c2nnc(N[C@H]3COC(C)(C)C3)c3cnccc23)c(O)c1
Response: 27 fold

* * *

TGT: NLRP3 (Homo sapiens, UniProt Q96P20)
Construct: endogenous in cells
Sequence (Q96P20 whole entry): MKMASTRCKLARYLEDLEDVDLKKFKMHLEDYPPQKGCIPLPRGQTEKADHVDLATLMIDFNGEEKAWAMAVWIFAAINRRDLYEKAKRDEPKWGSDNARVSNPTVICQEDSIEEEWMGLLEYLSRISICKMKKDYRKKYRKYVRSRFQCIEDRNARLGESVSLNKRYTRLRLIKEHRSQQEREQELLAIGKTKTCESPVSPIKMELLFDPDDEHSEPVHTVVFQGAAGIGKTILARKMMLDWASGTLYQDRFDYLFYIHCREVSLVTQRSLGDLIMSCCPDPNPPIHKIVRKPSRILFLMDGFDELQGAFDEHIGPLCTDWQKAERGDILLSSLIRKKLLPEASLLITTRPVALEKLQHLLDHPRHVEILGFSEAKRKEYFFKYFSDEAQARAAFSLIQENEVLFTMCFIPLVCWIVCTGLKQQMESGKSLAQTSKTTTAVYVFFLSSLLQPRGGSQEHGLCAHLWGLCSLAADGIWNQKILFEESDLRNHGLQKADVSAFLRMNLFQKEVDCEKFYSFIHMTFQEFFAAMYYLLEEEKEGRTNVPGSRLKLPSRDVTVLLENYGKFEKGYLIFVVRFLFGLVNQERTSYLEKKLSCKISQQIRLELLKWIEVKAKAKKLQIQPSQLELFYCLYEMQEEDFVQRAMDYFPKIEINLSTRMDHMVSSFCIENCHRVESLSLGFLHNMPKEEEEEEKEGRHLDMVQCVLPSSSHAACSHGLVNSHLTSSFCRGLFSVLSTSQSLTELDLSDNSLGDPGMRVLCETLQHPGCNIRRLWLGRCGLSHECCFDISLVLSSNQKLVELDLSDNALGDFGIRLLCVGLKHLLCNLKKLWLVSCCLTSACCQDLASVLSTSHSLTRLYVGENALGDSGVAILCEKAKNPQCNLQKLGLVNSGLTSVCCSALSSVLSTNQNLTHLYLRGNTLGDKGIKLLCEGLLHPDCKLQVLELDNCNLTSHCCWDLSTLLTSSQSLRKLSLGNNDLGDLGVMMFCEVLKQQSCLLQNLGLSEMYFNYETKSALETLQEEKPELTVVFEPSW
METHOD NOTES: Human whole blood (hWB) NLRP3 assay
PROTOCOL CONDITIONS: LPS priming 1 μg/ml, ATP activation, read-out: hWB IC50 (raw activity data)
MEASUREMENT NAME: pIC50
// pIC50: -log10(molar conc.)

Previously resolved entries follow.
[[record]]
compound = "Cc1cc(O)c(-c2nnc(N[C@H]3COC(C)(C)C3)c3cnccc23)c(F)c1 (single isomer, unassigned)"
meas_value = 6.34

[[record]]
compound = "Cc1ccc(-c2nnc(N[C@@H]3CCOC(C)(C)C3)c3cnccc23)c(O)c1 (single isomer, unassigned) [Compound 14B]"
meas_value = 5.44


We now examine a further compound.
Request: What value of pIC50 has been reported for the following compound? C[C@@H]1C[C@@H](Nc2nnc(-c3ccc(Cl)cc3O)c3ccncc23)CCO1 (single isomer, unassigned) [Compound 25D*]
Response: 5.92
